Data provenance is PubChem BioAssay (NCI).

- Test system: HCC-2998 colon
- assay-info: NCI tumour cell line growth inhibition, 48 h
Decision: TGI >= 4 µM yields True, all other cases yield False.

Illustrative cases are given below, each with its answer.
O=C1CS(=O)(=O)C(c2cccc(Oc3ccccc3)c2)N1C1CC1 (stereo unspecified) = True
C=CC(=O)Nc1cccc(Oc2nc(Nc3ccc(N4CCN(C)CC4)cc3OC)ncc2Cl)c1 = False
CCCCCCCCCCOC(=O)NCCC = True
COc1ccc2c(c1)CCCc1c-2nc2ccccc2c1N = False
CCNc1nnc(-c2ccccc2Nc2ccccc2-c2nnc(NCC)s2)s1 = True

Is TGI for O=c1cccc2n1CC1CNC[C@H]2C1 at or above 4 µM?
True

Is TGI for Cc1cccc(Cl)c1NC(=O)c1cnc(Nc2cc(N3CCOCC3)cc(S(C)(=O)=O)c2)s1 at or above 4 µM?
True

====

- System: SK-MEL-5 melanoma
- assay-info: NCI tumour cell line growth inhibition, 48 h
endpoint: GI50

Sample records with GI50:
CCCCCCCCCCCCCCCCN(CC)CC = 1.94 µM
C=CCOC(=O)Nc1cccn([C@H](CC(C)C)C(=O)NCCC(C)C)c1=O = 74.7 µM

Respectfully, I request GI50 for each entry included below.
1. COc1cc(C2CC(=O)Nc3c2c(C)nn3-c2nc3ccccc3[nH]2)cc(OC)c1O (stereo not given)
2. COc1ccc(-c2cn(-c3cc(OC)c(OC)c(OC)c3)c(=O)[nH]2)cc1OC
3. NC(N)=N/N=C/c1c(-c2cccnc2)nc2sc(Cl)cn12

1: 1.83 µM; 2: > 100 µM; 3: 15.2 µM

Respectfully, I request GI50 for each entry included below.
1. CC(C)(C)c1cc(-c2nc3ccc(N4CCN(CCO)CC4)cc3[nH]2)cc(C(C)(C)C)c1O
2. C/C=C(\C)C(=O)O[C@H]1C=CC(=O)O[C@H]1COC(=O)[C@H](C)O
3. O=C(c1ccccc1)c1nc2ccc(C(F)(F)F)cc2nc1N1CCN(c2ccccc2)CC1
4. COc1cc2c(c(OC)c1OC)-c1c(c3ccc([N+](=O)[O-])cc3c(=O)n1CCCN)C2=O
5. Cc1c2c(nn1-c1ccc(S(=O)(=O)NC(=S)NC(=O)c3ccccc3)cc1)-c1ccccc1CC2

["1.74 µM", "4.62 µM", "15.9 µM", "7.15 µM", "30.7 µM"]

====

- Tested on: T-47D breast
- assay-info: NCI tumour cell line growth inhibition, 48 h
endpoint: GI50

O=C(c1ccccc1)c1nc2ccc(C(F)(F)F)cc2nc1N1CCN(c2ccccc2)CC1 = 21.8 µM
COC(=O)c1oc2c(C(=O)/C=C/c3ccc(OC)cc3)c(OCCN3CCOCC3)ccc2c1C = 1.51 µM

Respectfully, I request GI50 for each entry included below.
1. COc1cc2c(c(OC)c1OC)-c1c(c3ccc([N+](=O)[O-])cc3c(=O)n1CCCN)C2=O
2. Cc1c2c(nn1-c1ccc(S(=O)(=O)NC(=S)NC(=O)c3ccccc3)cc1)-c1ccccc1CC2

["1.88 µM", "44.9 µM"]

Respectfully, I request GI50 for each entry included below.
1. Cn1c(=O)c(Oc2ccc(F)cc2F)cc2cnc(NC3CCOCC3)nc21
2. Cc1ccccc1C(C(=O)NC1CCCCC1)N(C(=O)CNc1ncccc1F)c1cccc(F)c1 (stereo unspecified)

1: > 25 µM; 2: 60.8 µM

====

- System: A549 NSCLC
- assay-info: NCI tumour cell line growth inhibition, 48 h; in the data active means GI50 below about 0.43 µM; inactive means the rest
Tick one outcome: active, inactive

NCCSC(c1ccccc1)(c1ccccc1)c1ccccc1 = inactive
C=C1c2nc3ccccc3n2C=C(c2ccc(Cl)cc2)N1c1ccc(OCCN2CCCCC2)cc1 = inactive

Which outcome was assigned to N#Cc1c(N/N=C\c2ccc(Cl)cc2)nc(N)nc1N1CCOCC1 in this test?
inactive

Which outcome was assigned to Cc1sc2c(c1C)C(c1ccc(Cl)cc1)=N[C@@H](CC(=O)NCCCN1CCN(C)CC1)c1nnc(C)n1-2 in this test?
inactive

Which outcome was assigned to COc1cc2nc3cc([N+](=O)[O-])ccc3c(NCCNCC(C)O)c2cc1OC (stereo unspecified) in this test?
inactive

Which outcome was assigned to CN(C)Cc1c(C(=O)NCCOc2ccc(C(=O)NO)cc2)oc2ccccc12 in this test?
active

Which outcome was assigned to Oc1ccccc1/C=N\NC(=S)N/N=C/c1ccccc1O in this test?
inactive

====

- Test system: MDA-MB-435
- assay-info: NCI tumour cell line growth inhibition, 48 h; in the data active = GI50 below about 0.43 µM; inactive = the rest
Tick one outcome: 1 (active), -1 (inactive)

C/C=C(\C)C(=O)O[C@H]1C=CC(=O)O[C@H]1COC(=O)[C@H](C)O = -1
COc1cc2c(c(OC)c1OC)-c1c(c3ccc([N+](=O)[O-])cc3c(=O)n1CCCN)C2=O = -1
C=CCOC(=O)Nc1cccn([C@H](CC(C)C)C(=O)NCCC(C)C)c1=O = -1

Which outcome was assigned to COc1cc(/C=C/C(=O)c2c(-c3ccc(F)cc3)nc3sc(C)nn23)cc(OC)c1OC in this test?
-1

Which outcome was assigned to NC(N)=N/N=C/c1c(-c2cccnc2)nc2sc(Cl)cn12 in this test?
-1

Which outcome was assigned to COc1cc(C2CC(=O)Nc3c2c(C)nn3-c2nc3ccccc3[nH]2)cc(OC)c1O (stereo unspecified) in this test?
-1

Which outcome was assigned to CC(C)C(=O)c1c(C(F)(F)F)n([O-])c2ccccc2[n+]1=O in this test?
-1

Which outcome was assigned to COc1ccc2c(c1)C(c1cc(OC)c3c(c1)OCO3)C1=C(COC1=O)N2 (stereo unspecified) in this test?
1

Which outcome was assigned to COc1ccc(NC(=O)c2ccc(NC3=C(Cl)C(=O)N(Cc4ccccc4)C3=O)cc2)c(OC)c1 in this test?
-1

Which outcome was assigned to O=C(c1ccccc1)c1nc2ccc(C(F)(F)F)cc2nc1N1CCN(c2ccccc2)CC1 in this test?
-1

Which outcome was assigned to CC(=O)N[C@@H](Cc1ccc(OP(=O)(O)O)cc1)C(=O)N[C@H]1CCC(=O)N2CCC[C@@H](C(=O)NCc3ccccc3)N2C1=O in this test?
-1

====

Can you tell me TGI for the items I'm about to list?
- Test system: MDA-MB-231 breast
- assay-info: NCI tumour cell line growth inhibition, 48 h

Respectfully, I request TGI for each entry included below.
1. COc1cc(CNc2c3ccccc3nc3ccccc23)cc(OC)c1OC
2. O=C1[C@@H](O)[C@@H]2CCCC[C@@]23CCCN13
3. O=C1c2c(Cl)c(Cl)c(Cl)c(Cl)c2C(=O)C2(Cl)CC=CCC12Cl (stereo unspecified)
4. CC(C)Cn1cnc2c(Cl)nc3ccccc3c21
5. CN(C)c1ccc(/C=C(\NC(=O)c2ccccc2)C(=O)Nc2cccc(C(=O)NCCCO)c2)cc1
6. O=C(NCCCN(CCCCN(CCCNC(=O)c1cc(S(=O)(=O)O)cc(O)c1O)C(=O)c1cc(S(=O)(=O)O)cc(O)c1O)C(=O)c1cc(S(=O)(=O)O)cc(O)c1O)c1cc(S(=O)(=O)O)cc(O)c1O

1: 23.6 µM; 2: > 100 µM; 3: 3.13 µM; 4: > 100 µM; 5: > 100 µM; 6: > 100 µM

====

- Tested on: M19-MEL melanoma
- assay-info: NCI tumour cell line growth inhibition, 48 h
Can you tell me TGI for the items I'm about to list?

Respectfully, I request TGI for each entry included below.
1. CCC1(c2ccc(N)cc2)CCC(=O)NC1=O (centres undefined)
2. Cc1ccc(-c2nnc3s/c(=C\c4ccc(N(C)C)cc4)c(=O)n23)cc1
3. O=C(Cc1nc2ccc([N+](=O)[O-])cc2[nH]c1=O)C(=O)Nc1ccccc1[N+](=O)[O-]
4. COC(=O)C(c1ccc(OC)cc1)N1C(=O)[C@@H](NC(=O)c2ccccc2)[C@H]1[C@@H](C)O (some centres undefined)
5. O=C(CSSCC(=O)Nc1ccc(Br)cc1)Nc1ccc(Br)cc1
6. CCN(CCO)CCNc1ccc(C)c2sc3ccccc3c(=O)c12
7. O=C(O)c1ccc([C@@H]2C(=O)N(O)[C@@H]3C=CC[C@@H]32)cc1

1: > 4740 µM; 2: > 100 µM; 3: > 100 µM; 4: > 100 µM; 5: 34.2 µM; 6: 3.63 µM; 7: > 100 µM

====

Can you tell me TGI for the items I'm about to list?
- System: SNB-19 CNS
- assay-info: NCI tumour cell line growth inhibition, 48 h

Sample records with TGI:
O=C1c2c(Cl)c(Cl)c(Cl)c(Cl)c2C(=O)C2(Cl)CC=CCC12Cl (stereo not given) = 3.01 µM
O=C(CC1(O)C(=O)Nc2c(Cl)cc(Cl)cc21)c1ccc(F)cc1 (stereo not given) = > 100 µM
CCNc1nnc(-c2ccccc2Nc2ccccc2-c2nnc(NCC)s2)s1 = > 100 µM
O=C1CC(N2C(=O)/C(=C/C(Cl)=C\c3ccc([N+](=O)[O-])cc3)SC2=S)C(=O)N1c1ccc(O)cc1 (stereo not given) = 3.47 µM
CC(=O)N[C@@H](Cc1ccc(OP(=O)(O)O)cc1)C(=O)N[C@H]1CCC(=O)N2CCC[C@@H](C(=O)NCc3ccccc3)N2C1=O = > 25 µM

Respectfully, I request TGI for each entry included below.
1. CC1=CC(=O)N(n2c(Cc3ccc(Cl)cc3)n[nH]c2=O)C1=O
2. CN1NC(c2ccccc2)=C(C#N)C(=O)CC1c1ccc(F)cc1 (stereo not given)
3. Cc1cccc(C)c1N=Nc1ccc(O)c(CN(C)C)c1
4. CN(C)C(=NC#N)N(Cc1ccccc1)Cc1ccccc1

1: > 100 µM; 2: > 100 µM; 3: > 100 µM; 4: > 100 µM

Kindly state the measured TGI obtained for COc1ccc2c(c1)[n+]([O-])c(/C(C)=N/NC(=O)c1ccccc1O)c(C)[n+]2[O-] with SNB-19 CNS.
> 100 µM
